FYI, the data here is from patent US11319313B2.

# EXPERIMENT_SUMMARY: Solubility of crystalline HCl salt in various solvents (visual dissolution)
# Type: physicochemical
# TEST_CONTEXT: 22 °C, thermodynamic from solid; Water; ambient temperature, visual inspection
TEST_READOUT: Solubility

Exercise: # lookup: Solubility of [2H][C@]1(Cc2ccc(OCCc3ccc(CC)cn3)cc2)SC(=O)NC1=O [deuterium-enriched (R)-pioglitazone]
Key: 5000 to 10000 µg/mL

###

# EXPERIMENT_SUMMARY: Solubility of crystalline HCl salt in various solvents (visual dissolution)
# Format: physicochemical
# TEST_CONTEXT: 22 °C, organic solvent or mixture, thermodynamic from solid; Toluene; ambient temperature, visual inspection
TEST_READOUT: Solubility

Exercise: # lookup: Solubility of [2H][C@]1(Cc2ccc(OCCc3ccc(CC)cn3)cc2)SC(=O)NC1=O [deuterium-enriched (R)-pioglitazone]
Key: 5000 to 10000 µg/mL

###

# EXPERIMENT_SUMMARY: pH-dependent solubility of crystalline salts (48 h equilibration, HPLC)
# Type: physicochemical
# TEST_CONTEXT: 22 °C, pH 6.6, aqueous buffer, thermodynamic from solid
Structures can show the parent of a compound that is named as a salt.
TEST_READOUT: solubility at 48 h

Exercise: # lookup: solubility at 48 h of CCc1ccc(CCOc2ccc(CC3SC(=O)NC3=O)cc2)nc1 (stereo not shown) [Pioglitazone HCl Salt, pioglitazone hydrochloride, reference compound]
Key: < 30 µg/mL

###

# EXPERIMENT_SUMMARY: pH-dependent solubility of crystalline salts (48 h equilibration, HPLC)
# Type: physicochemical
# TEST_CONTEXT: 22 °C, pH 0.8, aqueous buffer, thermodynamic from solid
TEST_READOUT: solubility at 48 h

Exercise: # lookup: solubility at 48 h of [2H][C@]1(Cc2ccc(OCCc3ccc(CC)cn3)cc2)SC(=O)NC1=O [deuterium-enriched (R)-pioglitazone]
Key: 3770 µg/mL

###

# EXPERIMENT_SUMMARY: Solubility of crystalline HCl salt in various solvents (visual dissolution)
# Format: physicochemical
# TEST_CONTEXT: 22 °C, organic solvent or mixture, thermodynamic from solid; DMSO; ambient temperature, visual inspection
TEST_READOUT: Solubility

Exercise: # lookup: Solubility of [2H][C@]1(Cc2ccc(OCCc3ccc(CC)cn3)cc2)SC(=O)NC1=O [deuterium-enriched (R)-pioglitazone]
Key: > 50 mg/mL

###

# EXPERIMENT_SUMMARY: Solubility of crystalline HCl salt in various solvents (visual dissolution)
# Type: physicochemical
# TEST_CONTEXT: 22 °C, organic solvent or mixture, thermodynamic from solid; Methanol; ambient temperature, visual inspection
TEST_READOUT: Solubility

Exercise: # lookup: Solubility of [2H][C@]1(Cc2ccc(OCCc3ccc(CC)cn3)cc2)SC(=O)NC1=O [deuterium-enriched (R)-pioglitazone]
Key: ~50 mg/mL

###

# EXPERIMENT_SUMMARY: Solubility of crystalline HCl salt in various solvents (visual dissolution)
# Format: physicochemical
# TEST_CONTEXT: 22 °C, organic solvent or mixture, thermodynamic from solid; Ethyl acetate; ambient temperature, visual inspection
TEST_READOUT: Solubility

Exercise: # lookup: Solubility of [2H][C@]1(Cc2ccc(OCCc3ccc(CC)cn3)cc2)SC(=O)NC1=O [deuterium-enriched (R)-pioglitazone]
Key: 5000 to 10000 µg/mL
